Tested on: human SKM-1 acute myeloid leukemia cells
Test: SKM-1 antiproliferation cell-based assay (ATPlite)
Settings: Homo sapiens, SKM-1, 96 h, SKM-1 antiproliferation assay, 4 days, Table C2
endpoint.label: GI50

Solved cases (3 shown):
mol.smiles: COCCOc1ncc(-c2cc(F)cc(-c3ccc(N4CCN(C)C4=O)c(Cl)c3)c2O)cc1N1CCNCC1
GI50: 30 to 300 nM
//
mol.smiles: C#CCN1CCN(c2cc(-c3cc(F)cc(-c4ccc(-n5ccn(C)c5=O)c(Cl)c4)c3O)ccn2)CC1
GI50: 30 to 300 nM
//
mol.smiles: Cn1ccn(-c2ccc(-c3cc(F)cc(-c4ccnc(N5CCN[C@H](CO)C5)c4)c3O)cc2Cl)c1=O
GI50: 0.3 to 30 nM

Now examine the next entry.
Measured GI50 of "C[C@@H]1CN(c2cc(-c3cc(F)cc(-c4ccc(-n5ccn(C)c5=O)c(Cl)c4)c3O)cnn2)CCN1" : 0.3 to 30 nM

====

Test system: human SKM-1 acute myeloid leukemia cells
Test: SKM-1 antiproliferation cell-based assay (ATPlite)
Conditions: Homo sapiens, SKM-1, 96 h, SKM-1 antiproliferation assay, 4 days, Table C2
endpoint.label: GI50

molecule: Cn1ccn(-c2ccc(-c3cc(F)cc(-c4cnc(C(F)F)c(N5CCN(C(C)(C)C)CC5)c4)c3O)cc2Cl)c1=O
endpoint.result: 0.3 to 30 nM
--
molecule: CC(=O)NCc1ncc(-c2cc(F)cc(-c3ccc(N4CCN(C)C4=O)c(Cl)c3)c2O)cc1N1CCNCC1
endpoint.result: 30 to 300 nM
--
molecule: CC(=O)Nc1ccc(-c2cc(F)cc(-c3ccc(F)c(N4CCNCC4)c3)c2O)cc1F
endpoint.result: 30 to 300 nM
--
molecule: Cn1ccn(-c2ccc(-c3cc(F)cc(-c4ccnc(N5CCC(C)(N)CC5)c4)c3O)cc2Cl)c1=O
endpoint.result: 0.3 to 30 nM
--
molecule: Cn1ccn(-c2ccc(-c3cc(F)cc(-c4ccnc(N5CCNC(C(F)(F)F)C5)c4)c3O)cc2Cl)c1=O (stereo not shown)
endpoint.result: 300 to 3000 nM

Measured GI50 of "[2H]C([2H])([2H])n1ccn(-c2ccc(-c3cc(F)cc(-c4ccnc(N5CCC[C@H](N)C5)c4)c3O)cc2Cl)c1=O" : 0.3 to 30 nM

Measured GI50 of "CN1CCN(c2ccc(-c3cc(F)cc(-c4ccnc(N5CC[C@H](N)C5)c4)c3O)cc2Cl)C1=O" : 30 to 300 nM

====

Each entry below carries its recorded pIC50.
Biological target: human BRD4 bromodomain II (Homo sapiens, UniProt O60885)
Construct: human BRD4 bromodomain II [based on Genbank NM_058243, residues 349-460]; host or cells: E. coli
Assay: Bromodomain binding assay (AlphaScreen), BRD4 BDII
Conditions: AlphaScreen assay, Table C2; read-out: BRD4 BDII IC50
pIC50: −log10 of the molar value.

compound: CN1CCN(c2ccc(-c3cccc(-c4ccnc(N5CCNCC5)c4)c3O)cc2Cl)C1=O
endpoint.label: pIC50
endpoint.result: 8.00 to 9.00
--
compound: Cn1ccn(-c2ccc(-c3cc(F)cc(-c4ccnc(N5CC[C@H](C(N)=O)C5)c4)c3O)cc2Cl)c1=O
endpoint.label: pIC50
endpoint.result: 9.00 to 11.00
--
compound: Cn1ccn(-c2ccc(-c3cc(F)cc(-c4ccnc(N5C[C@@H](N)[C@H](O)C5)c4)c3O)cc2Cl)c1=O
endpoint.label: pIC50
endpoint.result: 9.00 to 11.00
--
compound: COC(=O)c1ncc(-c2cc(F)cc(-c3ccc(N4CCN(C)C4=O)c(Cl)c3)c2O)cc1N1CCNCC1
endpoint.label: pIC50
endpoint.result: < 7.00
--
compound: Cn1ccn(-c2ccc(-c3cc(F)cc(-c4cc(N5C[C@@H](N)C6(CC6)C5)c5cn[nH]c5c4)c3O)cc2Cl)c1=O
endpoint.label: pIC50
endpoint.result: 8.00 to 9.00
--
compound: Cn1ccn(-c2ccc(-c3cc(F)cc(-c4ccnc(N5CCN6CCOCC6C5)c4)c3O)cc2Cl)c1=O (stereo not shown)
endpoint.label: pIC50
endpoint.result: 9.00 to 11.00

Now examine the next entry.
Measured pIC50 of "CN1CCN(c2ccc(-c3cc(OC(F)(F)F)cc(-c4ccnc(N5CCNCC5)c4)c3O)cc2Cl)C1=O" : 7.00 to 8.00
